These entries and their values trace back to patent US9850247B2.

target: Wee-1 kinase (Homo sapiens)
pIC50: −log10 of the molar value.
Quick reference for pIC50 among some molecules

# molecule, target, pIC50
records = [
    ("COC[C@H]1CNCCN1c1ccc(Nc2ncc3c(n2)N(C)CN(c2c(Cl)cccc2Cl)C3=O)cc1 [Example 129]", "Wee-1 kinase (Homo sapiens)", "≥ 8.00"),
    ("COC[C@@H]1CN(c2ccc(Nc3ncc4c(n3)N(C)CN(c3c(Cl)cccc3Cl)C4=O)cc2)CCN1C [Example 66]", "Wee-1 kinase (Homo sapiens)", "7.00 to 8.00"),
]

What is its pIC50 for Wee-1 kinase (Homo sapiens)? Entry: C[C@@H]1CN(c2ccc(Nc3ncc4c(n3)N(C)CN(c3ccccc3Cl)C4=O)cc2)CCN1 [Example 94]
7.00 to 8.00

// next record CN1CN(c2ccccc2Cl)C(=O)c2cnc(Nc3ccc(N4CC5CCC(C4)N5C)c(CO)c3)nc21 [Example 97]
7.00 to 8.00

// next record CNCc1cc(Nc2ncc3c(n2)N(C)CN(c2c(Cl)cccc2Cl)C3=O)ccc1N1CCC(F)(F)CC1 [Example 147]
≥ 8.00

// next record C[C@@H]1CN(c2ccc(Nc3ncc4c(n3)N(C)CN(c3c(Cl)cccc3Cl)C4=O)cc2CN(C)C)C[C@H](C)O1 [Example 151]
≥ 8.00

// next record CC(=O)N1CCN(c2ccc(Nc3ncc4c(n3)N(C)CN(c3c(Cl)cccc3Cl)C4=O)cc2)CC1 [Example 125]
7.00 to 8.00

----------
target: Wee-1 kinase (Homo sapiens, UniProt P30291)
Sequence (P30291 whole entry): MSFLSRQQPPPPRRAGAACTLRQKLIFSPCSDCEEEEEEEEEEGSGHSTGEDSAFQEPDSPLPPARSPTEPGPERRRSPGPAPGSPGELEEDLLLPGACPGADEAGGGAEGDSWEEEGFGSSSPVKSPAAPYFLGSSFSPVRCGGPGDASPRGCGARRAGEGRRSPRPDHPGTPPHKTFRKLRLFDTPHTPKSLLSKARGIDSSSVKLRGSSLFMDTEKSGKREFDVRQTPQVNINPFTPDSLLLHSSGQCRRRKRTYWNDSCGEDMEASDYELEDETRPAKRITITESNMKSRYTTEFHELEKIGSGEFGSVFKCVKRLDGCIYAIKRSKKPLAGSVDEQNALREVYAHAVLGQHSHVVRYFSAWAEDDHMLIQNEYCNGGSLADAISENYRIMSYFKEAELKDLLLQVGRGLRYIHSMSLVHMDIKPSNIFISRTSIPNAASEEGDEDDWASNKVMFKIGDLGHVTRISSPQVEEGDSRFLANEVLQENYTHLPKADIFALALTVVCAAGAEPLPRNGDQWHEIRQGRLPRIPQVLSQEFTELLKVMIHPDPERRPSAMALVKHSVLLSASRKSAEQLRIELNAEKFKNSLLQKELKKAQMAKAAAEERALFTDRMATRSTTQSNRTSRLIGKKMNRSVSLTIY
Quick reference for IC50 among some compounds

Quick one: IC50 of CN1CN(c2c(Cl)cccc2Cl)C(=O)c2cnc(Nc3ccc(N4CCNC(C)(C)C4)cc3)nc21 [Example 96] ?
≤ 0.01 µM

----------
Quick reference for microsomal CLint at 1 μM among some compounds
testProtocol: CLint estimates using human liver microsomes (Method 4)
Type: in vitro ADME
condition: pH 7.4, 1 μM compound, read-out: Mics - CLint (HLM CLint)

# compound, microsomal CLint at 1 μM
rows = [
    ("O=C1c2cnc(Nc3ccc(N4CCNCC4)cc3)nc2N2CCCC2N1c1c(Cl)cccc1Cl (stereo not shown)", "≤ 15 µL/min/mg"),
]

Quick one: microsomal CLint at 1 μM of CN1CN(c2c(Cl)cccc2Cl)C(=O)c2cnc(Nc3ccc(N4CC5CNCC5C4)cc3)nc21 (stereo not shown) ?
15 to 50 µL/min/mg

// next record CNCc1cc(Nc2ncc3c(n2)N(C)CN(c2c(Cl)cccc2Cl)C3=O)ccc1N1CCN(C(C)=O)CC1
≤ 15 µL/min/mg

// next record C[C@@H]1CN(c2ccc(Nc3ncc4c(n3)N(C)CN(c3c(Cl)cccc3Cl)C4=O)cc2C(O)C(F)F)CCN1 (stereo partly shown)
≤ 15 µL/min/mg

----------
target: Wee-1 kinase (Homo sapiens)
pIC50: −log10 of the molar value. Structures can show the parent of a compound that is named as a salt.
Quick reference for pIC50 among some compounds

See these solved cases before continuing.
# compound, valueKind, endpointResult
measured = [
    ("CN1CN(c2c(Cl)cccc2Cl)C(=O)c2cnc(Nc3ccc(N4CCN(CC(=O)O)CC4)cc3)nc21 [Example 4, hydrochloride]", "pIC50", "7.00 to 8.00"),
    ("CN(C)Cc1cc(Nc2ncc3c(n2)N(C)CN(c2c(Cl)cccc2Cl)C3=O)ccc1N1CCOCC1", "pIC50", "≥ 8.00"),
]

What is its pIC50 for Wee-1 kinase (Homo sapiens)? Entry: Cc1cccc(Cl)c1N1CN(C)c2nc(Nc3ccc(N4CCN[C@H](C)C4)cc3)ncc2C1=O
7.00 to 8.00

// next record CN1CN(c2c(Cl)cccc2Cl)C(=O)c2cnc(Nc3ccc(N4CCNC[C@H]4CO)cc3)nc21
≥ 8.00

// next record C[C@@H]1CN(c2ccc(Nc3ncc4c(n3)N(C)CN(c3c(Cl)cccc3Cl)C4=O)cc2C(C)(C)O)CCN1
7.00 to 8.00

// next record CN1CN(c2c(Cl)cccc2Cl)C(=O)c2cnc(Nc3ccc(C4CCNCC4)c(CO)c3)nc21
≥ 8.00

// next record CCNCc1cc(Nc2ncc3c(n2)N(C)CN(c2c(Cl)cccc2Cl)C3=O)ccc1N1CCOCC1
7.00 to 8.00
